- Procedure Summary: Volume of distribution at steady state in dog at 0.3 mg/kg, iv
- Type: ADME, organism-based, Canis lupus familiaris
- Condition Summary: in vivo, read-out: Vdss
Experimental Readout: Vd (L/kg)
One number for each entry, in L/kg.

Given C[C@]1(CO)Cc2cc(NC(=O)c3cnn4cccnc34)c(N3CCOCC3)cc2O1 , state its recorded Vd.
8

* * *

- Procedure Summary: Half-life in mouse at 10 mg/kg, po
- Type: ADME, organism-based
- Condition Summary: in vivo
Experimental Readout: half-life (h)
Answers are plain numbers, in h.

Sample C[C@]1(CO)Cc2cc(NC(=O)c3cnn4cccnc34)c(N3CCOCC3)cc2O1 — what was its half-life?
1.3
